Origin of measurements: paper PMC3362798

- measured target: UniProt P49146
- Sequence (P49146 whole entry, species assumed): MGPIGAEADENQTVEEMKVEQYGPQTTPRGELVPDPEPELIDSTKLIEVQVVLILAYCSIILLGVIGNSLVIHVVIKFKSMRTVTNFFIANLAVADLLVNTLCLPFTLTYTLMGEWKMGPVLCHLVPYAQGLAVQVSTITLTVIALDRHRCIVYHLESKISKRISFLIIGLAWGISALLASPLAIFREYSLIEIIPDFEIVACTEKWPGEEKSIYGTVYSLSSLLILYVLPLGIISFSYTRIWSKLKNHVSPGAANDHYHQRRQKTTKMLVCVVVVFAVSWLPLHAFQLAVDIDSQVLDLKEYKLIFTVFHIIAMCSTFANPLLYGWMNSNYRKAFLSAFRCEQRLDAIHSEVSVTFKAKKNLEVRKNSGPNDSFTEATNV
- method notes: cAMP biosensor assay, NPY Y2 receptor antagonism
- Type: cell-based
property label: NPY Y2 antagonist activity (in words)

* CCN(CC)S(=O)(=O)c1cccc(OC(=O)N2CCC(C(O)(c3ccccc3)c3ccccc3)CC2)c1 [Compound 65] | no activity
* CCN(CC)C(=O)c1cccc(OC(=O)N2CCC(C(O)(c3ccccc3)c3ccccc3)CC2)c1 [Compound 64] | no activity
* COC(c1ccccc1)(c1ccccc1)C1CCN(C(=S)Nc2ccc(S(=O)(=O)N(C)C)cc2)CC1 [Compound 35] | no activity
